# System: SIRPα signalling induced by A549 cells
# method-description: Assay B: SIRPα signalling assay using A549 cells
# Format: cell-based
# test-settings: Homo sapiens; prior art compounds; A549 cells 48 h, Jurkat PathHunter SIRPαV1 reporter cells 5 h; read-out: Inhibition of SIRPα signalling induced by A549 cells: IC50
endpoint-name: IC50

Result for Cn1cnnc1C1CCN(S(=O)(=O)c2cccc(Nc3ccc(OCc4ccccc4)nc3)c2)CC1 [Compound 23] , tested on SIRPα signalling induced by A549 cells, IC50: > 10 µM

====

# method-description: Assay C: permeability in CACO-2 cells
# Type: in vitro ADME
# test-settings: human, pH 7.2; compounds of the invention; Caco-2, permeability B-A / permeability A-B
endpoint-name: efflux ratio at 2 h
Lab note: record the figure alone, no unit after it.

compound | efflux ratio at 2 h
Cn1cnnc1C1(F)CCN(c2c(C#N)cc(C(F)(F)F)nc2-c2cnc3nn(C(C)(C)C)c(F)c3c2)CC1 [Example 2] | 4.9

efflux ratio at 2 h measured on Cn1cnnc1C1(F)CCN(c2c(C#N)ccnc2-c2cnc3nn(C(C)(C)C)c(C(F)(F)F)c3c2)CC1 [Example 15] = 1.6

efflux ratio at 2 h measured on Cn1cnnc1C1(F)CCN(c2c(C#N)cc(C(F)(F)F)nc2-c2cnc3nn(C(C)(C)C)c(C(F)(F)F)c3c2)CC1 [Example 4] = 0.6

efflux ratio at 2 h measured on Cn1cnnc1C1(F)CCN(c2c(C#N)cc(C(F)(F)F)nc2-c2cnc3nn(C(C)(C)C(F)(F)F)cc3c2)CC1 [Example 6] = 10.1

efflux ratio at 2 h measured on Cn1cnnc1C1(F)CCN(c2c(C#N)cc(Cl)nc2-c2cnc3nn(C(C)(C)C)cc3c2)CC1 [Example 36] = 13.3

efflux ratio at 2 h measured on Cn1cnnc1C1(F)CCN(c2c(-c3ccc(F)nc3)ncc(C(F)(F)F)c2C#N)CC1 [Example 40] = 2.8

efflux ratio at 2 h measured on Cn1cnnc1C1(F)CCN(c2c(C#N)ccnc2-c2cnc3nn(C(F)(F)F)cc3c2)CC1 [Example 16] = 7.7

====

# method-description: Assay C: permeability in CACO-2 cells
# Format: in vitro ADME
# test-settings: human; compounds of the invention; Caco-2, apical to basolateral, pH 7.2
endpoint-name: Papp A→B at 2 h (nm/s)
Number in nm/s, nothing else.

// known answers, use as guide
smiles-string | endpoint-name | output-unit | endpoint-result
Cn1cnnc1C1(F)CCN(c2c(C#N)ccnc2-c2cnc3nn(C(F)(F)F)cc3c2)CC1 | Papp A→B at 2 h | nm/s | 31
Cn1cnnc1C1(F)CCN(c2c(-c3ccc(F)nc3)ncc(C(F)(F)F)c2C#N)CC1 | Papp A→B at 2 h | nm/s | 180
Cn1cnnc1C1(F)CCN(c2c(C#N)cc(C(F)(F)F)nc2-c2cnc3nn(C(F)(F)F)nc3c2)CC1 | Papp A→B at 2 h | nm/s | 450
Cn1cnnc1C1(F)CCN(c2c(C#N)ccnc2-c2cccnc2)CC1 | Papp A→B at 2 h | nm/s | 110
CC(C)n1nc2ncc(-c3nc(C4CC4)cc(C#N)c3N3CCC(F)(c4nncn4C)CC3)cc2c1F | Papp A→B at 2 h | nm/s | 94

Papp A→B at 2 h measured on Cn1cnnc1C1(F)CCN(c2c(C#N)ccnc2-n2cnc3nc(C(F)(F)F)ccc32)CC1 = 10

Papp A→B at 2 h measured on Cc1cncc(-c2nccc(C#N)c2N2CCC(F)(c3nncn3C)CC2)c1 = 140

Papp A→B at 2 h measured on Cn1cnnc1C1(F)CCN(c2c(C#N)cc(C3CC3)nc2-c2cnc3nn(C(C)(C)C)cc3c2)CC1 = 190
